target_system: T1, HBsAg AD serotype (Hepatitis B virus)
T1 construct: also called HBsAg serotype AD
method_description: SPR epitope binning; competitor (1st, saturating Ab): HBC34
observation_type: binding of second antibody

Field request: binding of second antibody | item: NOV3841 (antibody, human IgG1, lambda, V domains shown, Full human IgG1 (lambda) expressed in CHO cells) VH: EVQLLESGGGLVQPGGSRRLSCAASGFTFSYYGMNWVRQAPGKGLEWVSGITQSGSITYYADTVKGRFSISRDNSKNTLFLQMNSLRAEDTAVYYCAKVGVRSSSGMWDLDYWGQGTLVTVSS VL: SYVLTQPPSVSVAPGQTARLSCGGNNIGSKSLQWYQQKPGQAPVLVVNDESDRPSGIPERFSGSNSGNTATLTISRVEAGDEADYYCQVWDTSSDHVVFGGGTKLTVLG 145 % of its binding as first antibody

Reference for the values: patent US20240317840A1
